System: HEK-293T
Assay: Multiplex assay against HEK293T
Assay type: toxicity, cell-based
Details: human, 24 h, 10 µM, compound concentration 10 uM, replicate 1
Note that class boundaries on Population Normal (%) are low-valued: < 80%; mid-valued: ≥ 80% and < 90%; high-valued: ≥ 90%

Exam item: assign "N#CCNC(=O)c1ccc(-c2ccnc(Nc3ccc(N4CCOCC4)cc3)n2)cc1" to the correct category.
high-valued

Exam item: assign "CC(/C=C1\SC(=S)N(CCCC(=O)Nc2ccc(C(=O)O)c(O)c2)C1=O)=C\c1ccccc1" to the correct category.
mid-valued

Exam item: assign "CC(C)c1cc(Nc2nc(N3CCC[C@H](N)C3)ncc2C(N)=O)cc(C(C)C)n1" to the correct category.
low-valued

Exam item: assign CCCCCNC(=N)N/N=C/c1c[nH]c2ccc(OC)cc12.O=C(O)/C=C\C(=O)O [TEGASEROD MALEATE] to the correct category.
low-valued

Exam item: assign "CC(C)[C@H](CO)Nc1nc(Nc2cccc(Cl)c2)c2ncn(C(C)C)c2n1" to the correct category.
mid-valued

Exam item: assign "Cl.NC[C@@H]1O[C@H](C23CC4CC(CC(C4)C2)C3)Cc2c1ccc(O)c2O" to the correct category.
mid-valued

Exam item: assign "CC(C)C[C@H](NC(=O)[C@H](Cc1ccccc1)NC(=O)CNC(=O)CNC(=O)[C@@H](N)Cc1ccc(O)cc1)C(=O)O" to the correct category.
mid-valued

Exam item: assign "N#Cc1cccc(C(=O)Nc2cc(-c3ccccc3)nn2-c2ccccc2)c1" to the correct category.
mid-valued

Exam item: assign "Cc1ccc(NC(=O)Nc2cc(C(F)(F)F)ccc2F)cc1Nc1ccc2c(c1)NC(=O)/C2=C\c1ccc[nH]1" to the correct category.
high-valued

Exam item: assign "C[C@@H](Oc1cc(-n2cnc3ccc(CN4CCN(C)CC4)cc32)sc1C(N)=O)c1ccccc1C(F)(F)F" to the correct category.
low-valued

Exam item: assign "c1ccc(-c2oc3ncnc(NC[C@@H]4CCCO4)c3c2-c2ccccc2)cc1" to the correct category.
low-valued

Exam item: assign "CC[C@@H]1C(=O)N(C)c2cnc(Nc3ccc(C(=O)NC4CCN(C)CC4)cc3OC)nc2N1C1CCCC1" to the correct category.
mid-valued

Exam item: assign "C=CC(=O)Nc1cc(-n2c(=O)ccc3cnc4ccc(-c5ccc(NS(C)(=O)=O)cc5)cc4c32)ccc1C" to the correct category.
mid-valued

Exam item: assign "CCOc1ccn(-c2ccc(F)cc2)c(=O)c1C(=O)Nc1ccc(Oc2ccnc(N)c2Cl)c(F)c1" to the correct category.
mid-valued

Exam item: assign "CC[C@H](Nc1ncnc2[nH]cnc12)c1nc2cccc(F)c2c(=O)n1-c1ccccc1" to the correct category.
high-valued

Exam item: assign "Cc1c(Nc2ccc(S(=O)(=O)N3CCN(C)CC3)cc2F)nc2ccc(Nc3cnn(C4CC4)c3)cn2c1=O" to the correct category.
high-valued

---

Tested on: Fibroblast
Assay: Incucyte cell viability with human fibroblast; note: filed as whole numbers so only -1 and 0 and 1 occur
Assay type: toxicity, cell-based
Conditions: 6 h, 10 µM, compound concentration 10 uM, replicate number 1, timepoint 6 hours
Kindly state Growth Rate for each of the entries shown.
Please reply with the value in numeric form only.

# Growth Rate lookup, item "C/C(=N\NC(=O)[C@@H]1C(=O)NC[C@H]1c1ccccc1)c1cccc(Br)c1"
0

# Growth Rate lookup, item "Cc1cc2c(cc1C1(c3ccc(C(=O)O)cn3)CC1)C(C)(C)CCC2(C)C"
0

# Growth Rate lookup, item "C=CC(=O)Nc1cc(-n2c(=O)ccc3cnc4ccc(-c5ccc(NS(C)(=O)=O)cc5)cc4c32)ccc1C"
1

# Growth Rate lookup, item "Cl.NC[C@@H]1O[C@H](C23CC4CC(CC(C4)C2)C3)Cc2c1ccc(O)c2O"
0

---

Kindly state Population Healthy Nuclei (%) for each of the entries shown.
Test system: Fibroblast
Test: Multiplex assay against human fibroblast
Assay type: toxicity, cell-based
Conditions: 24 h, 10 µM, compound concentration 10 uM, replicate 2

What reported Population Healthy Nuclei (%) corresponds to "CCCc1cc(C)[nH]c(=O)c1CNC(=O)c1cc(-c2ccc(N3CCN(C(C)C)CC3)nc2)cc2c1cnn2C(C)C" on Fibroblast?
48%

What reported Population Healthy Nuclei (%) corresponds to "CC(C)c1cc(Nc2nc(N3CCC[C@H](N)C3)ncc2C(N)=O)cc(C(C)C)n1" on Fibroblast?
23%

What reported Population Healthy Nuclei (%) corresponds to CC(C)[C@H](CO)Nc1nc(Nc2cccc(Cl)c2)c2ncn(C(C)C)c2n1 [PURVALANOLA] on Fibroblast?
65%

What reported Population Healthy Nuclei (%) corresponds to C[C@@H](Oc1cc(-n2cnc3ccc(CN4CCN(C)CC4)cc32)sc1C(N)=O)c1ccccc1C(F)(F)F [GSK-461364] on Fibroblast?
47%

What reported Population Healthy Nuclei (%) corresponds to "CC(/C=C1\SC(=S)N(CCCC(=O)Nc2ccc(C(=O)O)c(O)c2)C1=O)=C\c1ccccc1" on Fibroblast?
83%

What reported Population Healthy Nuclei (%) corresponds to Oc1cccc(-c2nc(N3CCOCC3)c3oc4ncccc4c3n2)c1 [PI-103] on Fibroblast?
24%

What reported Population Healthy Nuclei (%) corresponds to CC[C@@]1(O)C(=O)OCc2c1cc1n(c2=O)Cc2cc3ccccc3nc2-1 [CAMPTOTHECIN] on Fibroblast?
31%

What reported Population Healthy Nuclei (%) corresponds to CC[C@H](Nc1ncnc2[nH]cnc12)c1nc2cccc(F)c2c(=O)n1-c1ccccc1 [IDELALISIB] on Fibroblast?
25%

What reported Population Healthy Nuclei (%) corresponds to "CCOC(=O)CCNc1cc(N2CCc3ccccc3CC2)nc(-c2ccccn2)n1" on Fibroblast?
41%

What reported Population Healthy Nuclei (%) corresponds to "Cc1c(Nc2ccc(S(=O)(=O)N3CCN(C)CC3)cc2F)nc2ccc(Nc3cnn(C4CC4)c3)cn2c1=O" on Fibroblast?
38%

What reported Population Healthy Nuclei (%) corresponds to N#CCNC(=O)c1ccc(-c2ccnc(Nc3ccc(N4CCOCC4)cc3)n2)cc1 [MOMELOTINIB] on Fibroblast?
52%

What reported Population Healthy Nuclei (%) corresponds to "CN(c1cc(C(F)(F)F)nc(OCCC(=O)O)n1)c1cccc2c1CCC2" on Fibroblast?
81%

What reported Population Healthy Nuclei (%) corresponds to CCCCCNC(=N)N/N=C/c1c[nH]c2ccc(OC)cc12.O=C(O)/C=C\C(=O)O [TEGASEROD MALEATE] on Fibroblast?
26%

What reported Population Healthy Nuclei (%) corresponds to CN1C(=O)[C@@H](NC(=O)c2cc3ccccc3[nH]2)N=C(c2ccccc2)c2ccccc21 [DEVAZEPIDE] on Fibroblast?
49%

What reported Population Healthy Nuclei (%) corresponds to CC(C)C[C@H](NC(=O)[C@H](Cc1ccccc1)NC(=O)CNC(=O)CNC(=O)[C@@H](N)Cc1ccc(O)cc1)C(=O)O [ENKEPHALIN] on Fibroblast?
86%

What reported Population Healthy Nuclei (%) corresponds to "Cc1ccc(S(=O)(=O)NC2c3ccccc3Oc3ccccc32)cc1" on Fibroblast?
68%

What reported Population Healthy Nuclei (%) corresponds to CC(Cc1ccc(O)c(O)c1)C(C)Cc1ccc(O)c(O)c1 (centres undefined) [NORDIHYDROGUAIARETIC ACID] on Fibroblast?
90%

What reported Population Healthy Nuclei (%) corresponds to "c1ccc(-c2oc3ncnc(NC[C@@H]4CCCO4)c3c2-c2ccccc2)cc1" on Fibroblast?
68%

What reported Population Healthy Nuclei (%) corresponds to "C=CC(=O)Nc1cc(-n2c(=O)ccc3cnc4ccc(-c5ccc(NS(C)(=O)=O)cc5)cc4c32)ccc1C" on Fibroblast?
32%

---

Tested on: U2OS
Experiment: Multiplex assay against U2OS
Format: toxicity, cell-based
Details: human, 24 h, 10 µM, compound concentration 10 uM, replicate 1
MEASUREMENT_KIND: Population Tubulin-Different-Phenotype (%)
Expressed in %, but write only the number.

# Population Tubulin-Different-Phenotype (%) lookup, item "N#CCNC(=O)c1ccc(-c2ccnc(Nc3ccc(N4CCOCC4)cc3)n2)cc1"
20

# Population Tubulin-Different-Phenotype (%) lookup, item "CC(C)c1cc(Nc2nc(N3CCC[C@H](N)C3)ncc2C(N)=O)cc(C(C)C)n1"
97

# Population Tubulin-Different-Phenotype (%) lookup, item "Cc1c(Nc2ccc(S(=O)(=O)N3CCN(C)CC3)cc2F)nc2ccc(Nc3cnn(C4CC4)c3)cn2c1=O"
26

# Population Tubulin-Different-Phenotype (%) lookup, item CC(Cc1ccc(O)c(O)c1)C(C)Cc1ccc(O)c(O)c1 (centres undefined) [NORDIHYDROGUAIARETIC ACID]
59

# Population Tubulin-Different-Phenotype (%) lookup, item "CC[C@H](Nc1ncnc2[nH]cnc12)c1nc2cccc(F)c2c(=O)n1-c1ccccc1"
94

# Population Tubulin-Different-Phenotype (%) lookup, item "Oc1cccc(-c2nc(N3CCOCC3)c3oc4ncccc4c3n2)c1"
74

# Population Tubulin-Different-Phenotype (%) lookup, item CCCCCNC(=N)N/N=C/c1c[nH]c2ccc(OC)cc12.O=C(O)/C=C\C(=O)O [TEGASEROD MALEATE]
100

# Population Tubulin-Different-Phenotype (%) lookup, item "CC(C)[C@H](CO)Nc1nc(Nc2cccc(Cl)c2)c2ncn(C(C)C)c2n1"
100

# Population Tubulin-Different-Phenotype (%) lookup, item "CN(c1cc(C(F)(F)F)nc(OCCC(=O)O)n1)c1cccc2c1CCC2"
14
